# Tested on: SW620 (Human Colorectal)
# ASSAY REMARKS: CellTiterGlo cell viability assay
# Type: cell-based
# CONDITIONS: SW-620
ATTRIBUTE MEASURED: pIC50
One number for each entry, as −log10 of the molar value.

Give the reported value of pIC50 for this record: `Cc1cccc(/C=N/Nc2cc(N3CCOCC3)nc(OCCc3ccccn3)n2)c1`
7.05

###

# Test system: DOHH-2 (Human Follicular B Cell Lymphoma-GCB)
# ASSAY REMARKS: CellTiterGlo cell viability assay
# Type: cell-based
# CONDITIONS: Human Follicular Lymphoma - DLBCL-GCB
ATTRIBUTE MEASURED: IC50 (nM)
Numbers only, in nM.

Give the reported value of IC50 for this record: `Cc1cccc(/C=N/Nc2cc(N3CCOCC3)nc(OCCc3ccccn3)n2)c1`
700

###

# ASSAY REMARKS: Phase 1 dose-escalation (QD/BID) study in normal healthy volunteers
# Type: in vivo, human
# CONDITIONS: human, plasma, po, 7 mg, Treatment B: 7 mg ×2, total 14 mg; oral; human plasma; mean; read-out: PM Cmax
ATTRIBUTE MEASURED: Cmax

Give the reported value of Cmax for this record: Cc1cccc(/C=N/Nc2cc(N3CCOCC3)nc(OCCc3ccccn3)n2)c1 [apilimod]
8.18 ng/mL

###

# ASSAY REMARKS: Phase 1 dose-escalation (QD/BID) study in normal healthy volunteers
# Type: in vivo, human
# CONDITIONS: human, plasma, po, 105 mg, Treatment F: 105 mg ×2, total 210 mg; oral; human plasma; mean; read-out: AM Cmax
ATTRIBUTE MEASURED: Cmax (ng/mL)
Answers are plain numbers, in ng/mL.

Give the reported value of Cmax for this record: `Cc1cccc(/C=N/Nc2cc(N3CCOCC3)nc(OCCc3ccccn3)n2)c1`
192

###

# Tested on: OCI-Ly19 (Human Diffuse Large B Cell Lymphoma -GCB)
# ASSAY REMARKS: CellTiterGlo cell viability assay
# Type: cell-based
# CONDITIONS: Human DLBCL-GCB
ATTRIBUTE MEASURED: IC50 (µM)
Numbers only, in µM.

Give the reported value of IC50 for this record: Cc1cccc(/C=N/Nc2cc(N3CCOCC3)nc(OCCc3ccccn3)n2)c1 [apilimod]
0.38

###

# Tested on: KMH-2 (Human Hodgkin's lymphoma)
# ASSAY REMARKS: CellTiterGlo cell viability assay
# Type: cell-based
# CONDITIONS: KM-H2
ATTRIBUTE MEASURED: IC50 (nM)
Numbers only, in nM.

Give the reported value of IC50 for this record: `Cc1cccc(/C=N/Nc2cc(N3CCOCC3)nc(OCCc3ccccn3)n2)c1`
181

###

# System: CAMA1 (Human breast cancer)
# ASSAY REMARKS: CellTiterGlo cell viability assay
# Type: cell-based
# CONDITIONS: CAMA-1
# Protocol: Briefly, test compounds (5 μl stock solution, 6×desired final well concentration) were dispensed to 384-well assay plates, TSC2−/− MEF cells (1000 cells per well in 25 μL of media) were added to the plates and the plates were incubated for 72 h (3 days) at 37° C. under an atmosphere of 5% CO2 in a humidified incubator for 3 days. Cell viability was determined with CellTiter-Glo® luminescence assay (Promega) per the manufacturer's instructions. […]
ATTRIBUTE MEASURED: IC50

Give the reported value of IC50 for this record: `Cc1cccc(/C=N/Nc2cc(N3CCOCC3)nc(OCCc3ccccn3)n2)c1`
> 10 µM

###

# Tested on: JeKo-1 (Human Mantle Cell Lymphoma)
# ASSAY REMARKS: CellTiterGlo cell viability assay
# Assay type: cell-based
# CONDITIONS: Homo sapiens, 72 h, 3-day CellTiterGlo assay
pIC50: −log10 of the molar value.
ATTRIBUTE MEASURED: pIC50

# assay system JeKo-1 (Human Mantle Cell Lymphoma): give pIC50 of Cc1cccc(/C=N/Nc2cc(N3CCOCC3)nc(OCCc3ccccn3)n2)c1 [apilimod]
> 7.00

###

# System: 22RV1 (Human prostate cancer)
# ASSAY REMARKS: CellTiterGlo cell viability assay
# Type: cell-based
pIC50: −log10 of the molar value.
ATTRIBUTE MEASURED: pIC50

Give the reported value of pIC50 for this record: Cc1cccc(/C=N/Nc2cc(N3CCOCC3)nc(OCCc3ccccn3)n2)c1 [apilimod]
< 5.30

###

# Test system: THP1 (Human acute monocytic leukemia)
# ASSAY REMARKS: CellTiterGlo cell viability assay
# Assay type: cell-based
# CONDITIONS: THP-1
pIC50: −log10 of the molar value.
ATTRIBUTE MEASURED: pIC50

# assay system THP1 (Human acute monocytic leukemia): give pIC50 of `Cc1cccc(/C=N/Nc2cc(N3CCOCC3)nc(OCCc3ccccn3)n2)c1`
< 5.00

###

# Test system: KARPAS-422 (Human Diffuse Large B Cell Lymphoma -GCB)
# ASSAY REMARKS: CellTiterGlo cell viability assay
# Type: cell-based
# CONDITIONS: Human DLBCL-GCB
# Procedure: Briefly, test compounds (5 μl stock solution, 6×desired final well concentration) were dispensed to 384-well assay plates, TSC2−/− MEF cells (1000 cells per well in 25 μL of media) were added to the plates and the plates were incubated for 72 h (3 days) at 37° C. under an atmosphere of 5% CO2 in a humidified incubator for 3 days. Cell viability was determined with CellTiter-Glo® luminescence assay (Promega) per the manufacturer's instructions. […]
ATTRIBUTE MEASURED: IC50

Give the reported value of IC50 for this record: `Cc1cccc(/C=N/Nc2cc(N3CCOCC3)nc(OCCc3ccccn3)n2)c1`
> 10 µM

###

# ASSAY REMARKS: Phase 1 dose-escalation (QD/BID) study in normal healthy volunteers
# Format: in vivo, human
# CONDITIONS: human, plasma, po, 14 mg, Treatment C: 14 mg ×2, total 28 mg; oral; human plasma; mean; read-out: AM Cmax
ATTRIBUTE MEASURED: Cmax (ng/mL)
Numbers only, in ng/mL.

Give the reported value of Cmax for this record: `Cc1cccc(/C=N/Nc2cc(N3CCOCC3)nc(OCCc3ccccn3)n2)c1`
18.2

###

# Tested on: A549 (Human lung carcinoma)
# ASSAY REMARKS: CellTiterGlo cell viability assay
# Assay type: cell-based
ATTRIBUTE MEASURED: IC50 (nM)
Numbers only, in nM.

Give the reported value of IC50 for this record: Cc1cccc(/C=N/Nc2cc(N3CCOCC3)nc(OCCc3ccccn3)n2)c1 [apilimod]
110

###

# System: MDST8 (Human colorectal cancer)
# ASSAY REMARKS: CellTiterGlo cell viability assay
# Type: cell-based
ATTRIBUTE MEASURED: pIC50
One number for each entry, as −log10 of the molar value.

Give the reported value of pIC50 for this record: `Cc1cccc(/C=N/Nc2cc(N3CCOCC3)nc(OCCc3ccccn3)n2)c1`
6.00

###

# ASSAY REMARKS: Phase 1 dose-escalation (QD/BID) study in normal healthy volunteers
# Assay type: in vivo, human
# CONDITIONS: human, plasma, po, 35 mg, Treatment D: 35 mg ×2, total 70 mg; oral; human plasma; mean; read-out: AM Cmax
ATTRIBUTE MEASURED: Cmax
Enter the number, and then the unit.

Give the reported value of Cmax for this record: Cc1cccc(/C=N/Nc2cc(N3CCOCC3)nc(OCCc3ccccn3)n2)c1 [apilimod]
71.8 ng/mL

###

# ASSAY REMARKS: Phase 1 dose-escalation (QD/BID) study in normal healthy volunteers
# Assay type: in vivo, human
# CONDITIONS: human, plasma, po, 7 mg, Treatment B: 7 mg ×2, total 14 mg; oral; human plasma; mean; read-out: AM Cmax
ATTRIBUTE MEASURED: Cmax (ng/mL)
Give bare numbers, in ng/mL.

Give the reported value of Cmax for this record: Cc1cccc(/C=N/Nc2cc(N3CCOCC3)nc(OCCc3ccccn3)n2)c1 [apilimod]
12.7

###

# Tested on: SUDHL-4 (Human Diffuse Large B Cell Lymphoma -GCB)
# ASSAY REMARKS: CellTiterGlo cell viability assay
# Format: cell-based
# CONDITIONS: Homo sapiens, SU-DHL-4, 72 h; SUDHL-4; 3-day CellTiterGlo assay; read-out: IC50
ATTRIBUTE MEASURED: IC50 (µM)
Numbers only, in µM.

Give the reported value of IC50 for this record: Cc1cccc(/C=N/Nc2cc(N3CCOCC3)nc(OCCc3ccccn3)n2)c1 [apilimod]
0.05

###

# ASSAY REMARKS: Phase 1 dose-escalation (QD/BID) study in normal healthy volunteers
# Assay type: in vivo, human
# CONDITIONS: human, plasma, po, 70 mg, Treatment E: 70 mg ×2, total 140 mg; oral; human plasma; mean; read-out: AM Cmax
ATTRIBUTE MEASURED: Cmax (ng/mL)
Give bare numbers, in ng/mL.

Give the reported value of Cmax for this record: Cc1cccc(/C=N/Nc2cc(N3CCOCC3)nc(OCCc3ccccn3)n2)c1 [apilimod]
145
